// data source = patent US8211935B2

Target: CaV2.2 (Homo sapiens)
Construct: expressed in transfected cells; host or cells: HEK293
Sequence (Q00975 whole entry): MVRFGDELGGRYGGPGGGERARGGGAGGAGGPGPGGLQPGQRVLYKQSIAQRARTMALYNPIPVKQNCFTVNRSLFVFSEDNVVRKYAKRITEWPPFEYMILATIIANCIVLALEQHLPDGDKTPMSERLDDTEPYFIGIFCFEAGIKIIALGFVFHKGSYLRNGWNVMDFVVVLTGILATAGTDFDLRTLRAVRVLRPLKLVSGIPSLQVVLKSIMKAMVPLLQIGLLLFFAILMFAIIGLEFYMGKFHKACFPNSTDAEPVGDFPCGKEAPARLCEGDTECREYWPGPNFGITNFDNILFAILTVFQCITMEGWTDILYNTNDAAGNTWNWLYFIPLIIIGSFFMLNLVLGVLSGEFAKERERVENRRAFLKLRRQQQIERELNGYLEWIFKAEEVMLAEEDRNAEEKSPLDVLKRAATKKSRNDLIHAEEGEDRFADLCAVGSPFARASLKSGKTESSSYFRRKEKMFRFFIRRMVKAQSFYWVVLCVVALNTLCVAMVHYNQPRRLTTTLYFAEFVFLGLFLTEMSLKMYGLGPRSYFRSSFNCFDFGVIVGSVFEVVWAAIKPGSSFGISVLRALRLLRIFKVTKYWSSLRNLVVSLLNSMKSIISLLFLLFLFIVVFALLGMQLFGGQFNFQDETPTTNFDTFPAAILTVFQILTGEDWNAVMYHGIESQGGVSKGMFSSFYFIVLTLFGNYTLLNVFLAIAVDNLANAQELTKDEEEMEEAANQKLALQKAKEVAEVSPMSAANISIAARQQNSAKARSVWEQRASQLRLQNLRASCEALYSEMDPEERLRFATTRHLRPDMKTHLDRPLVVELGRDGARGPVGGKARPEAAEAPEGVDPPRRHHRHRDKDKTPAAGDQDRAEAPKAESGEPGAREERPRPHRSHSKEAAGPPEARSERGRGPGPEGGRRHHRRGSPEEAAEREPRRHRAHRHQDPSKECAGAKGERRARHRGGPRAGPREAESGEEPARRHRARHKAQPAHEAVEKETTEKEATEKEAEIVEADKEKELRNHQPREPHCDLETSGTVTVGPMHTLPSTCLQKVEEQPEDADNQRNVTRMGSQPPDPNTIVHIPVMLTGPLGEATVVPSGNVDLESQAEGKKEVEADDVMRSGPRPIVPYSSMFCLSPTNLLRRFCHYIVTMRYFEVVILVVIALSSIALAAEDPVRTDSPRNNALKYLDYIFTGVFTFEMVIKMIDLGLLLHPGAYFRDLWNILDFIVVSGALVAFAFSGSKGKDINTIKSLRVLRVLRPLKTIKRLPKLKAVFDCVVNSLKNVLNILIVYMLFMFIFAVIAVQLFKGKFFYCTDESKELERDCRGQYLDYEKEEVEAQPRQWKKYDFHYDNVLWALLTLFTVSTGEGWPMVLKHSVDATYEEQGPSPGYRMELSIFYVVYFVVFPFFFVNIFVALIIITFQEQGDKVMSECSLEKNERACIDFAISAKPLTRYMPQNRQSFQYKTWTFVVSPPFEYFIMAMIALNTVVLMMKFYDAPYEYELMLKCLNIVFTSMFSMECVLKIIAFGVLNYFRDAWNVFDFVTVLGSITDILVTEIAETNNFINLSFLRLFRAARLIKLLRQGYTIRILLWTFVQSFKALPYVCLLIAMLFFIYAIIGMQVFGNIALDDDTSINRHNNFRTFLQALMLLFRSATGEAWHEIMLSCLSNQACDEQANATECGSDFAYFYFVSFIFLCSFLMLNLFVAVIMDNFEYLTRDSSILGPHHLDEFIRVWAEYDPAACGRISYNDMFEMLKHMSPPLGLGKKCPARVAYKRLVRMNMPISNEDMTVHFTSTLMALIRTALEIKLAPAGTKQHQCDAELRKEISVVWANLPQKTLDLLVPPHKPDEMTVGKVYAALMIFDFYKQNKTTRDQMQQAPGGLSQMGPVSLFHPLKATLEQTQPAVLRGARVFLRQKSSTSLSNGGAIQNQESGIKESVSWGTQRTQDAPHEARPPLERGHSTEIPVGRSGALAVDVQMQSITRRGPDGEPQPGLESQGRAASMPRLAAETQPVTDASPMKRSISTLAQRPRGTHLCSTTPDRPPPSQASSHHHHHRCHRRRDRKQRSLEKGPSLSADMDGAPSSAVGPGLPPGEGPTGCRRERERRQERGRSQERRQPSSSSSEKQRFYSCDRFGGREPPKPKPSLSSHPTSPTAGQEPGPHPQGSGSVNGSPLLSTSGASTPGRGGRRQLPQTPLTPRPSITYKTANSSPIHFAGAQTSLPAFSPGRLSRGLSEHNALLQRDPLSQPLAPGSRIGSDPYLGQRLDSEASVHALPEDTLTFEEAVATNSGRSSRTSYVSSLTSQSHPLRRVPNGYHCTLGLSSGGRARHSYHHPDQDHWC
Sequence (P54284 whole entry partner): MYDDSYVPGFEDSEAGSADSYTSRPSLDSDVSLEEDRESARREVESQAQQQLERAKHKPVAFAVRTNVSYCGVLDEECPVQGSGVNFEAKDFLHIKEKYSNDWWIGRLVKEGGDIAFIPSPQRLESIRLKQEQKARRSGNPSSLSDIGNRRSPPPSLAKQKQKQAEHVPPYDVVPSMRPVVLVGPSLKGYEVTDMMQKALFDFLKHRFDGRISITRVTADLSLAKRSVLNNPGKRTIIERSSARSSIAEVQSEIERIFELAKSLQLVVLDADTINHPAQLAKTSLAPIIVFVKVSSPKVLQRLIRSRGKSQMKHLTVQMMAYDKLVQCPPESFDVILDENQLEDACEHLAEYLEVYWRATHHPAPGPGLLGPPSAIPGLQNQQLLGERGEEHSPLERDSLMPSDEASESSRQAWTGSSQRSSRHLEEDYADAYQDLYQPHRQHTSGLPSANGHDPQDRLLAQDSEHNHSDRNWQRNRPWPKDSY
Sequence (P54289 25-946 partner limits assumed): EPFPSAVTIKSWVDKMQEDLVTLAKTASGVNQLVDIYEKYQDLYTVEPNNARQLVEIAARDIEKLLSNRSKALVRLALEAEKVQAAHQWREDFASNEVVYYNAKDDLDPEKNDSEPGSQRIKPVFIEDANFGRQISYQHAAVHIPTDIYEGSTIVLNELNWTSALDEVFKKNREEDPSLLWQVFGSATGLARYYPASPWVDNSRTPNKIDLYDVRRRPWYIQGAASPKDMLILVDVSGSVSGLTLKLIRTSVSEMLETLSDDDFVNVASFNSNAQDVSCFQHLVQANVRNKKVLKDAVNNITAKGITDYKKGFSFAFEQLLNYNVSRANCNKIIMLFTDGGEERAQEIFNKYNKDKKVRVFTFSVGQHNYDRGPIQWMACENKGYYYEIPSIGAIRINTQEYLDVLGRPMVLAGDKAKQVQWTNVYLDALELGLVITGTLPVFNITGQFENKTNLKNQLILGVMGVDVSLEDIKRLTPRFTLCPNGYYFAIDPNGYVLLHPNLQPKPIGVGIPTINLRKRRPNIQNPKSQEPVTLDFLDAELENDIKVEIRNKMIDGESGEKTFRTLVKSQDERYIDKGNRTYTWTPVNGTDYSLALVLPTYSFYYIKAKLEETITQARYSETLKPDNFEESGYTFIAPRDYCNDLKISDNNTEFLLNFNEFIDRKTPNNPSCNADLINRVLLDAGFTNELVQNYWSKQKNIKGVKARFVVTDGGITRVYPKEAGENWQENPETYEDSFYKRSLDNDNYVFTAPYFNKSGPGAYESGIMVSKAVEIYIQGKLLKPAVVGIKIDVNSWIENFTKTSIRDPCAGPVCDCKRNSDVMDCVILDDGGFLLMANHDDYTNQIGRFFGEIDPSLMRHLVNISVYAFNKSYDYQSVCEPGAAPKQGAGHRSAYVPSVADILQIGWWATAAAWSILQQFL
Sequence (P54289 947-1103 partner limits assumed): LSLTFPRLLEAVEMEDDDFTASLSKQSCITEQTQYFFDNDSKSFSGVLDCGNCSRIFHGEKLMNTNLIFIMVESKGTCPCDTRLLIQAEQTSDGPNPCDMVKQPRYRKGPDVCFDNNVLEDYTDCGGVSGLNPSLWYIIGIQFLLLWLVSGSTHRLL
Assay: VIPR optical membrane potential assay with electrical stimulation
Type: cell-based
Details: Table 3, biological assay data; read-out: IC50
Protocol: Antagonist properties of test compounds were assessed as follows. Cells expressing the CaV of interest were placed into microtiter plates. […] The cells were stimulated with electrical means to evoke a CaV dependent membrane potential change from unblocked channels, which was detected and measured with trans-membrane potential-sensitive dyes. Antagonists were detected as a decreased membrane potential response to the stimulus. […] Allow solution to sit for 10 minutes. […] Run plate on the optical reader. […]
Measured metric: IC50

- Compound: "O=C(c1cc2cc(S(=O)(=O)N3CCCCCC3)ccc2[nH]1)N1CCCCC1 [compound 354]"
  Target of assay: "CaV2.2 (Homo sapiens)"
  Result: "5 to 20 µM"
- Compound: "CCN(CC)S(=O)(=O)c1ccc2oc(C(=O)N3CCCC3)c(C)c2c1 [compound 332]"
  Target of assay: "CaV2.2 (Homo sapiens)"
  Result: "< 20 µM"
- Compound: "CC1CC(C)CN(S(=O)(=O)c2ccc3oc(C(=O)NCC4CCCO4)cc3c2)C1 (stereo not shown) [compound 408]"
  Target of assay: "CaV2.2 (Homo sapiens)"
  Result: "< 5 µM"
- Compound: "CC1CC(C)CN(S(=O)(=O)c2ccc3[nH]c(C(=O)N4CCN(C)CC4)cc3c2)C1 (stereo not shown) [compound 91]"
  Target of assay: "CaV2.2 (Homo sapiens)"
  Result: "5 to 20 µM"
